Please respond with reported Ag Score for every item in the list.
- Assayed Target: T1, RSV F antigen (respiratory syncytial virus (RSV), UniProt P03420 26-524)
- T1 construct: also called F antigen of RSV; RSV F protein
- T1 sequence (P03420 26-524): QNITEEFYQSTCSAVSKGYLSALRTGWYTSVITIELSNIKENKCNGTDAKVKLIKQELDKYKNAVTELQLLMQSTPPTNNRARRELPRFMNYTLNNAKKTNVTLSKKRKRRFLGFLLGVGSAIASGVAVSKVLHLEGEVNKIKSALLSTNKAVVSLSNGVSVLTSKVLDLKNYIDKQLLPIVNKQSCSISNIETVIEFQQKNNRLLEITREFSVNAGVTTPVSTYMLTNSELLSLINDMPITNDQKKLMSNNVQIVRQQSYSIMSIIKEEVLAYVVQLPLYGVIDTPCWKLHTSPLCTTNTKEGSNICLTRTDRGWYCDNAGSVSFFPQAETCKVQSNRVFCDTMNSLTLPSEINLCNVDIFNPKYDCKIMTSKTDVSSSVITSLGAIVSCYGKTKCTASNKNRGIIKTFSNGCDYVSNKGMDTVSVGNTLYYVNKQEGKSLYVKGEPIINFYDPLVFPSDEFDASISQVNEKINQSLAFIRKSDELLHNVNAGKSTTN
- Assay Protocol: antibody titration ELISA on 500 ng RSV F antigen; qualitative score from titration curves

Binder	Measurement Type	Reported Value
clone 17 (PWSW) (antibody, V domains shown) VH: QVTLRESGPALVKPTQTLTLTCTFSGFSLSTPGMSVGWIRQPPGKALEWLADIWWDDKKDYNPSLKSRLTISKDTSKNQVVLKVTNMDPADTATYYCARSMITNWYFDVWGQGTTVTVSS VL: DIQMTQSPSTLSASVGDRVTITCSASSSVGYMHWYQQKPGKAPKLLIYDTSKLASGVPSRFSGSGSGTEFTLTISSLQPDDFATYYCFQGSWYPFTFGGGTKVEIK	Ag Score	2 arbitrary score (0-4)

Lookup: Give a short answer stating reported Ag Score for clone 10 (PFSF) (antibody, V domains shown) VH: QVTLRESGPALVKPTQTLTLTCTFSGFSLSTPGMSVGWIRQPPGKALEWLADIWWDDKKDYNPSLKSRLTISKDTSKNQVVLKVTNMDPADTATYYCARSMITNFYFDVWGQGTTVTVSS VL: DIQMTQSPSTLSASVGDRVTITCSASSSVGYMHWYQQKPGKAPKLLIYDTSKLASGVPSRFSGSGSGTEFTLTISSLQPDDFATYYCFQGSFYPFTFGGGTKVEIK .
Found: 3 arbitrary score (0-4)
